B1: Histidine--tRNA ligase, cytoplasmic, residues 8 to 45; numbered along this chain, P12081 (parent)
chain: EELVKLQGERVRGLKQQKASAELIEEEVAKLLKLKAQL

variants of: B1; experiment: abundance fitness (aPCA) (normalised: wild type 0, dead -1); higher = more abundant; growth selection in yeast, the domain comes from the species named; conditions: Homo sapiens
Collected abundance fitness values appear next to each entry.

| variant-key | abundance fitness |
| --- | --- |
| I24Q | 0.163 |
| E26I | 0.086 |
| E27W | -1.11 |
| L3Q | 0.153 |
| L6C | -0.436 |
| A21C | -0.202 |
| G13V | 0.198 |
| L38W | -0.154 |
| L6P | -0.211 |
| L23H | -0.075 |
| E2L | -0.632 |
| K30L | -0.211 |
| K18R | -0.06 |
| E2A | -0.665 |
| R10F | -0.288 |
| L32I | -0.093 |
| E27A | -0.108 |
| E26F | -0.038 |
| G13K | 0.168 |
